B1: FUT8 (parent)
chain: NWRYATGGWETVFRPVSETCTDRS

# Variants of: B1
# assay-method-text: protein stability index of a GFP-peptide fusion (GPS, HEK-293T) (PSI 1-6); higher = more stable;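 also: lentivirally expressed fusions sorted by FACS into six bins by GFP to DsRed ratio, PSI derived from sequencing read proportions per bin multiplied by bin number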
# test-conditions: c terminus: a fixed tail appended
Quick list: protein stability index per entry.
Format: numeric value only, no unit, no commentary.

W9H | 2.73
N1Q | 4.02
V12M | 2.48
V12W | 1.26
E18M | 1.4
Y4R | 3.07
W2N | 3.55
T6R | 1.51

Attention now turns to another entry.
Prompt line: Data request, read-out protein stability index, for E18K
Response line: 2.27
